# protocol description: Toxicity: morphological changes in Hela cells
# Format: cell-based
# experimental parameters: human; Hela cells; average of triplicate determinations; read-out: IC50 Hela cell (concentration required to cause microscopically visible change or disruption in about 50% of the cell sheet)
Please respond with 1 when measured CC50 is strictly beneath 200 µg/mL, and with 0 in all other cases.

Solved entries:
                                   compound  category
0  COC(=O)C(C)NP(=O)(CCOCn1cnc2c(N)ncnc21)OC1C(CO)OC(n2cnc3c(N)ncnc32)C1O (stereo not drawn)         0
1               Nc1ncnc2c1ncn2COCCP(=O)(O)O         0
2  Nc1ncnc2c1ncn2COCCO [VI, Acyclic adenosine, reference compound]         0
3  Nc1ncnc2c1ncn2COCCP(=O)(O)O[C@H]1[C@H](O)[C@H](n2cnc3c(N)ncnc32)O[C@@H]1CO         0
4  Nc1ncnc2c1ncn2[C@@H]1O[C@H](CO)[C@@H](O)[C@@H]1O [Compound 37, 9-(β-D-arabinofuranosyl)adenine, reference compound]         1

We now examine a further compound.
*Q* Take the compound CCOP(=O)(O)CCOCn1cnc2c(N)ncnc21.N and say whether its CC50 is less than 200 µg/mL.
*A* 1
